// provenance: PubChem BioAssay AID1918957

- Test system: NCI-H1876 complex spheroid viability
- Test summary: Anticancer human tumor NCI-H1876 cell line growth inhibition [LSD1];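 also: spheroids exposed to compounds for one week before readout; 100% = DMSO vehicle-treated spheroids so lower means fewer viable cells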
- Experimental context: second compound 0.1 µM; first compound 0.00949 µM; hits give low values
Attribute: viability, T/C

Compound	viability, T/C
O=C(C=Cc1cccc(S(=O)(=O)Nc2ccccc2)c1)NO + NC1CC1c1ccc(-c2cccc(O)c2)cc1	110%
Nc1ncn(C2CC(O)C(CO)S2)c(=O)n1 (stereo unspecified) + NC1CCC(NC2CC2c2ccccc2)CC1	92.6%
Nc1ccccc1NC(=O)c1ccc(CNC(=O)OCc2cccnc2)cc1 + NC1CCC(NC2CC2c2ccccc2)CC1	98.5%
CCc1c2c(nc3ccc(O)cc13)-c1cc3c(c(=O)n1C2)COC(=O)[C@]3(O)CC + NC1CCC(NC2CC2c2ccccc2)CC1	4.51%
COc1cc(C2c3cc4c(cc3C(OC3OC5COC(C)OC5C(O)C3O)C3COC(=O)C23)OCO4)cc(OC)c1O (stereo unspecified) + NC1CC1c1ccc(-c2cccc(O)c2)cc1	87.6%
COc1cc(C2c3cc4c(cc3C(OC3OC5COC(C)OC5C(O)C3O)C3COC(=O)C23)OCO4)cc(OC)c1O (stereo unspecified) + NC1CCC(NC2CC2c2ccccc2)CC1	91.7%
CCN(c1cc(-c2ccc(CN3CCOCC3)cc2)cc(C(=O)NCc2c(C)cc(C)[nH]c2=O)c1C)C1CCOCC1 + NC1CCC(NC2CC2c2ccccc2)CC1	108%
Nc1ccn(C2OC(CO)C(O)C2(F)F)c(=O)n1 (stereo unspecified) + NC1CCC(NC2CC2c2ccccc2)CC1	30.3%
CCc1c2c(nc3ccc(O)cc13)-c1cc3c(c(=O)n1C2)COC(=O)[C@]3(O)CC + NC1CC1c1ccc(-c2cccc(O)c2)cc1	1.59%
NS(=O)(=O)OCC1CC(n2ccc3c(NC4CCc5ccccc54)ncnc32)CC1O (stereo unspecified) + NC1CCC(NC2CC2c2ccccc2)CC1	78.2%
Nc1ccn(C2OC(CO)C(O)C2(F)F)c(=O)n1 (stereo unspecified) + NC1CC1c1ccc(-c2cccc(O)c2)cc1	24.8%
Nc1ccccc1NC(=O)c1ccc(CNC(=O)OCc2cccnc2)cc1 + NC1CC1c1ccc(-c2cccc(O)c2)cc1	91.1%
Nc1ncn(C2CC(O)C(CO)S2)c(=O)n1 (stereo unspecified) + NC1CC1c1ccc(-c2cccc(O)c2)cc1	99.4%
CCN(c1cc(-c2ccc(CN3CCOCC3)cc2)cc(C(=O)NCc2c(C)cc(C)[nH]c2=O)c1C)C1CCOCC1 + NC1CC1c1ccc(-c2cccc(O)c2)cc1	110%
O=C(C=Cc1cccc(S(=O)(=O)Nc2ccccc2)c1)NO + NC1CCC(NC2CC2c2ccccc2)CC1	109%
NS(=O)(=O)OCC1CC(n2ccc3c(NC4CCc5ccccc54)ncnc32)CC1O (stereo unspecified) + NC1CC1c1ccc(-c2cccc(O)c2)cc1	93.3%
